Conditions: in water, 338.15 K
Observation Type: solubility (mole fraction)
Answer with a number only.

Reported solubility (mole fraction) for C[C@@H]1O[C@@H](O[C@H]2[C@H](Oc3cc(O)c(C(=O)CCc4ccc(O)cc4)c(O)c3)O[C@H](CO)[C@@H](O)[C@@H]2O)[C@H](O)[C@H](O)[C@H]1O was 0.000375

###

Details: in ethyl acetate, 308.15 K
Observation Type: solubility (mole fraction)
Answer with a number only.

Reported solubility (mole fraction) for C[C@@H]1O[C@@H](O[C@H]2[C@H](Oc3cc(O)c(C(=O)CCc4ccc(O)cc4)c(O)c3)O[C@H](CO)[C@@H](O)[C@@H]2O)[C@H](O)[C@H](O)[C@H]1O was 0.000369

###

Settings: in water, 308.15 K
Observation Type: solubility (mole fraction)
Answer with a number only.

Reported solubility (mole fraction) for C[C@@H]1O[C@@H](O[C@H]2[C@H](Oc3cc(O)c(C(=O)CCc4ccc(O)cc4)c(O)c3)O[C@H](CO)[C@@H](O)[C@@H]2O)[C@H](O)[C@H](O)[C@H]1O was 3.78e-05

###

Details: in ethyl acetate, 328.15 K
Observation Type: solubility (mole fraction)
Answer with a number only.

Reported solubility (mole fraction) for C[C@@H]1O[C@@H](O[C@H]2[C@H](Oc3cc(O)c(C(=O)CCc4ccc(O)cc4)c(O)c3)O[C@H](CO)[C@@H](O)[C@@H]2O)[C@H](O)[C@H](O)[C@H]1O was 0.000668

###

Conditions: in ethyl acetate, 298.15 K
Observation Type: solubility (mole fraction)

Reported solubility (mole fraction) for C[C@@H]1O[C@@H](O[C@H]2[C@H](Oc3cc(O)c(C(=O)CCc4ccc(O)cc4)c(O)c3)O[C@H](CO)[C@@H](O)[C@@H]2O)[C@H](O)[C@H](O)[C@H]1O was 0.00031

###

Details: in ethyl acetate, 338.15 K
Observation Type: solubility (mole fraction)
Answer with a number only.

Reported solubility (mole fraction) for C[C@@H]1O[C@@H](O[C@H]2[C@H](Oc3cc(O)c(C(=O)CCc4ccc(O)cc4)c(O)c3)O[C@H](CO)[C@@H](O)[C@@H]2O)[C@H](O)[C@H](O)[C@H]1O was 0.000776

###

Conditions: in water, 318.15 K
Observation Type: solubility (mole fraction)
Answer with a number only.

Reported solubility (mole fraction) for C[C@@H]1O[C@@H](O[C@H]2[C@H](Oc3cc(O)c(C(=O)CCc4ccc(O)cc4)c(O)c3)O[C@H](CO)[C@@H](O)[C@@H]2O)[C@H](O)[C@H](O)[C@H]1O was 7.12e-05

###

Conditions: in water, 298.15 K
Observation Type: solubility (mole fraction)
Answer with a number only.

Reported solubility (mole fraction) for C[C@@H]1O[C@@H](O[C@H]2[C@H](Oc3cc(O)c(C(=O)CCc4ccc(O)cc4)c(O)c3)O[C@H](CO)[C@@H](O)[C@@H]2O)[C@H](O)[C@H](O)[C@H]1O was 2.13e-05

Origin of values: BigSolDB 2.1
